Source: BindingDB's records for doi:10.1021/jm00112a034

Molecular target: dopamine D1 receptor (Cyprinus carpio)
Experiment: Concentration required to inhibit 50% dopamine receptor D1 activity using cell free homogenate of carp retina
pEC50: −log10 of the molar value.
Result type: pEC50

// below: answered compounds
Compound	Result type	Reported measurement
NC[C@@H]1OC(COCc2ccccc2)Cc2c1ccc(O)c2O (stereo not given in full)	pEC50	7.05
CCCCC1Cc2c(ccc(O)c2O)[C@H](CN)O1 (stereo not given in full)	pEC50	8.20

(1) C#CCNC[C@@H]1OC(C2CCCCC2)Cc2c1ccc(O)c2O (stereo not given in full)
(2) NC[C@@H]1OC(CCc2ccccc2)Cc2c1ccc(O)c2O (stereo not given in full)
(3) CC[C@H]1Cc2c(ccc(O)c2O)[C@H](CN)O1
(4) OCCCNC[C@@H]1OC(C2CCCCC2)Cc2c1ccc(O)c2O (stereo not given in full)
### Prompt Hi! Can you put these in order of pEC50, lowest number first? Return the labels ranked in the requested order, please.
### Response 4, 3, 1, 2

(I) CCCCCCC1Cc2c(ccc(O)c2O)[C@H](CN)O1 (stereo not given in full)
(II) NC[C@@H]1OC(c2ccc(I)cc2)Cc2c1ccc(O)c2O (stereo not given in full)
### Prompt Determine, for I and II , which has the greater value of pEC50. // output: label of the selected item
### Response II

(a) NC[C@@H]1OC2(CCCCC2)Cc2c1ccc(O)c2O
(b) Oc1ccc2c(c1O)CC(C1CCCCC1)O[C@H]2CNC1CC1 (stereo not given in full)
### Prompt Consider entries a and b . Which has the numerically lower pEC50? // output: label of the selected item
### Response b
(b: 6.91, a: 7.16)
